- Test system: Saccharomyces cerevisiae
- Assay protocol: protein stability index of tFT-peptide fusion in wild type (PSI (0-1 scale)); higher = more stable (slower turnover)
- Experimental context: genetic background: wild type
Would you please tag the item Y when its protein stability index is 0.3 or above, and N when it is below?

Consider the following illustrative entries.
PVLAASFWRVVG : N
PSLAASFWRVVGT : Y
VRGACGGWRLVG : N

[ask] Decide: protein stability index of RSLRVLLPRYFR >= 0.3?
[reply] Y

[ask] Decide: protein stability index of KKVKKGQKQKIN >= 0.3?
[reply] N

[ask] Decide: protein stability index of RLIQPLPVQFNN >= 0.3?
[reply] Y

[ask] Decide: protein stability index of CTSCGYKFRTND >= 0.3?
[reply] Y

[ask] Decide: protein stability index of CLVSLPIDLFFR >= 0.3?
[reply] Y

[ask] Decide: protein stability index of PTLAASFWRVVG >= 0.3?
[reply] N

[ask] Decide: protein stability index of ARWRAGLWRGAS >= 0.3?
[reply] Y

[ask] Decide: protein stability index of KKHKKGQKPKIN >= 0.3?
[reply] Y

====

Measured protein stability index accompanies every entry in the list below.
- Tested on: Saccharomyces cerevisiae
- Assay protocol: protein stability index of tFT-peptide fusion (C-terminal peptide) (PSI (0-1 scale)); higher = more stable (slower turnover)
- Experimental context: genetic background: das1 deletion; temperature: 30 C
Lab note: jot the number down without any unit.

RGDCFLVLCVWR : 0.366
RGLWAAIPRKCT : 0.645
SWGRGADRWRRA : 0.649

// protein stability index value for YCCDYFMFVLVV : 0.206

// protein stability index value for YDLRRIGRIGVG : 0.348

// protein stability index value for LFRRMWVEIFYV : 0.423

// protein stability index value for FWVNFLFVLFIL : 0.261

// protein stability index value for SWCLLVWIGGVF : 0.295

// protein stability index value for PAVRRLTGLMLM : 0.612

// protein stability index value for RWPLVIRSLIVF : 0.251

====

- Test system: Saccharomyces cerevisiae
- Assay protocol: protein stability index of tFT-peptide fusion (C-terminal peptide) (PSI (0-1 scale)); higher = more stable (slower turnover)
- Experimental context: genetic background: wild type; temperature: 30 C
Would you please tag the item satisfied when its protein stability index is 0.7 or above, and not satisfied when it is below?

[ask] Decide: protein stability index of RRKTKTYRSWME >= 0.7?
[reply] not satisfied

[ask] Decide: protein stability index of SPRLPPPPPLPP >= 0.7?
[reply] not satisfied

[ask] Decide: protein stability index of VAAQRYAQRLFT >= 0.7?
[reply] not satisfied

[ask] Decide: protein stability index of VRGKYNNGNKKM >= 0.7?
[reply] not satisfied

[ask] Decide: protein stability index of GIGVVWLDVFKT >= 0.7?
[reply] not satisfied

[ask] Decide: protein stability index of PPPRPDPPSLLD >= 0.7?
[reply] not satisfied

[ask] Decide: protein stability index of VASPAPALRPPL >= 0.7?
[reply] satisfied

[ask] Decide: protein stability index of PFPFSLPSPPLP >= 0.7?
[reply] not satisfied

[ask] Decide: protein stability index of SVGPVGASIGGG >= 0.7?
[reply] not satisfied

[ask] Decide: protein stability index of PPPCPPPPLSRP >= 0.7?
[reply] not satisfied

[ask] Decide: protein stability index of PLRRSTSPLILL >= 0.7?
[reply] not satisfied

[ask] Decide: protein stability index of WCVCVSMRMIAI >= 0.7?
[reply] not satisfied

[ask] Decide: protein stability index of WCLVTRGGDRDL >= 0.7?
[reply] not satisfied

[ask] Decide: protein stability index of DFPIEEILGLVG >= 0.7?
[reply] not satisfied

[ask] Decide: protein stability index of VWGGGRGGGGKG >= 0.7?
[reply] not satisfied

[ask] Decide: protein stability index of CPSPPPIPLTLS >= 0.7?
[reply] not satisfied

[ask] Decide: protein stability index of MALAVRVVNCGA >= 0.7?
[reply] not satisfied

[ask] Decide: protein stability index of ALVRGGYLFFPP >= 0.7?
[reply] not satisfied

[ask] Decide: protein stability index of SYPRATPPWMAG >= 0.7?
[reply] satisfied

====

- Test system: Saccharomyces cerevisiae
- Assay protocol: protein stability index of tFT-peptide fusion (C-terminal peptide) (PSI (0-1 scale)); higher = more stable (slower turnover)
- Experimental context: genetic background: wild type; temperature: 37 C
Measured protein stability index accompanies every entry in the list below.
Lab note: jot the number down without any unit.

// known answers, use as guide
LCLLIHFWISHL : 0.293
YFRKDYRKMAQH : 0.453
GSLHVISVVGML : 0.595
FVVFLLFFMLYH : 0.411

// protein stability index value for GGRFVWIVRAVG : 0.568

// protein stability index value for LLAREILVIVAV : 0.271

====

- Tested on: Saccharomyces cerevisiae
- Assay protocol: protein stability index of tFT-peptide fusion (C-terminal peptide) (PSI (0-1 scale)); higher = more stable (slower turnover)
- Experimental context: genetic background: wild type; temperature: 30 C
Would you please tag the item 1.0 when its protein stability index is 0.7 or above, and 0.0 when it is below?

Consider the following illustrative entries.
TKRRRKRRGAKK : 0.0
RGVLVTVNWVSG : 0.0
GGWSFSSLWKIA : 0.0
LLYPALQHVSSV : 1.0
QRKKKDRTMKKR : 0.0

[ask] Decide: protein stability index of LVRDGQSHSVWN >= 0.7?
[reply] 0.0

[ask] Decide: protein stability index of LPLPPSFVHLPF >= 0.7?
[reply] 1.0

[ask] Decide: protein stability index of VVFRCSSFFCLV >= 0.7?
[reply] 0.0

[ask] Decide: protein stability index of VWGLWRLCVWGV >= 0.7?
[reply] 0.0

[ask] Decide: protein stability index of LGFQSRTTRCCG >= 0.7?
[reply] 0.0

[ask] Decide: protein stability index of SPSRPRPPPHAP >= 0.7?
[reply] 1.0

====

Measured protein stability index accompanies every entry in the list below.
- System: Saccharomyces cerevisiae
- Assay protocol: protein stability index of tFT-peptide fusion (C-terminal peptide) (PSI (0-1 scale)); higher = more stable (slower turnover)
- Experimental context: genetic background: wild type; temperature: 30 C
Lab note: jot the number down without any unit.

// known answers, use as guide
TLKGERHKKNKR : 0.623
LWVPPRSGRFGG : 0.681
AQPLARTALPRR : 0.775

protein stability index of KEATTEKNTTRA , assay on Saccharomyces cerevisiae, is 0.69

protein stability index of GTGERHIASEEK , assay on Saccharomyces cerevisiae, is 0.728

protein stability index of GCVHDLGVISCQ , assay on Saccharomyces cerevisiae, is 0.639

protein stability index of LPTLFPSAPSAI , assay on Saccharomyces cerevisiae, is 0.664

protein stability index of PRPAPHTGPSPG , assay on Saccharomyces cerevisiae, is 0.613

====

- Test system: Saccharomyces cerevisiae
- Assay protocol: protein stability index of tFT-peptide fusion (C-terminal peptide) (PSI (0-1 scale)); higher = more stable (slower turnover)
- Experimental context: genetic background: wild type; temperature: 30 C
Experimental readout: protein stability index
Lab note: jot the number down without any unit.

// known answers, use as guide
YYYKNSYWPSHI [VPS36 C-terminal 12 aa] : 0.701
LKKPRSGFHVIV [YFR006W C-terminal 12 aa] : 0.637
TSPPEGMEPKHW [SGT1 C-terminal 12 aa] : 0.687
DLEEAANKAQPQ [YLR257W C-terminal 12 aa] : 0.713
NEIATKLEETKL [TYS1 C-terminal 12 aa] : 0.687
AWVPPTEDDSDE [DPH5 C-terminal 12 aa] : 0.665
VGENNYYAESII [COS111 C-terminal 12 aa] : 0.702
DLVKASSTLNVS [SDL1 C-terminal 12 aa] : 0.672
TIYDGEAVAKYI [PRE5 C-terminal 12 aa] : 0.7
RTSPIDNVSNTH [NUT2 C-terminal 12 aa] : 0.693

// protein stability index value for IHRSVSELSRLH [MBB1 C-terminal 12 aa] : 0.689

// protein stability index value for NESLSTILLYII [YKR033C C-terminal 12 aa] : 0.561

====

Measured protein stability index accompanies every entry in the list below.
- System: Saccharomyces cerevisiae
- Assay protocol: protein stability index of tFT-peptide fusion (C-terminal peptide) (PSI (0-1 scale)); higher = more stable (slower turnover)
- Experimental context: genetic background: wild type; temperature: 30 C
Lab note: jot the number down without any unit.

GLSVFFFVGFIF : 0.322
LWFGAWWLGAVG : 0.421
RAEASFFLPKVG : 0.446

protein stability index of SLIDPLGNLFNS , assay on Saccharomyces cerevisiae, is 0.678

protein stability index of LLFVLWLSFFVL , assay on Saccharomyces cerevisiae, is 0.247

protein stability index of VCLVFLFQFVLI , assay on Saccharomyces cerevisiae, is 0.41
